B1: VH:VL chains; a variant is named by its letters at X, in order (parent)
chain 1: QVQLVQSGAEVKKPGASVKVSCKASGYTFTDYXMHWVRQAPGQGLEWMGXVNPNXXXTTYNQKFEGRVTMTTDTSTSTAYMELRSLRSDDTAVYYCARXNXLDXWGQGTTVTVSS
chain 2: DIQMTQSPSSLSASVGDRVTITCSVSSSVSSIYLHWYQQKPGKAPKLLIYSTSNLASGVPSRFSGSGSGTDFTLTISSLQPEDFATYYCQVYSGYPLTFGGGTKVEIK

Variants of: B1
test.protocol: yeast display scFab, FACS + sequencing
endpoint.name: non-specific binding call

mutation_string=VAGRGSAA endpoint_name="non-specific binding call" result=binds
mutation_string=YATAADAD endpoint_name="non-specific binding call" result="no binding"
mutation_string=YAEATDLY endpoint_name="non-specific binding call" result="no binding"
mutation_string=YRGKAAVD endpoint_name="non-specific binding call" result=binds
mutation_string=AETKGDGA endpoint_name="non-specific binding call" result="no binding"
mutation_string=YKGRGYAV endpoint_name="non-specific binding call" result=binds

# per-item lookup of non-specific binding call; items listed below
1. FEETDASA
2. FKGEGSSA
3. AAKRGSWV
4. VRRGDDVY
5. AKEADDVA
6. FKTKNYAD

Completion:
["binds", "no binding", "no binding", "no binding", "no binding", "binds"]

Please give non-specific binding call for each item listed below.
1. SRGRGSWD
2. VTTRADVV
3. YKGRSASV
4. YRTGAAGV
5. VEGAASWF
6. YTGGDSVD
7. DAGEASAV
8. VAEKDDGS

Completion:
["binds", "no binding", "no binding", "binds", "no binding", "no binding", "no binding", "no binding"]

Quick one: give me non-specific binding call for each item below, same order please.
1. YREGGSVD
2. VKTGGAWY
3. YKTKSDWV
4. SAREGDLA
5. YAGTGAVA

Completion:
1. no binding
2. no binding
3. no binding
4. no binding
5. no binding

Consider the following items and state reported non-specific binding call for each.
1. VRAGGDLA
2. AARADDAV
3. YKTGDDGV
4. YRGKSSVD
5. FRRRGAAA
6. DRAGDAVS
7. YRGGASGA

Completion:
["no binding", "no binding", "no binding", "binds", "binds", "no binding", "binds"]

Data credit: the emibetuzumab library of Makowski et al. (2022)
